Biological target: T1, mouse ACVR2A (mouse, UniProt P27038 20-135, limits assumed); also: test concentration or dose not given here
T1 construct: coated antigen of the initial ELISA
T1 sequence (P27038 20-135 limits assumed): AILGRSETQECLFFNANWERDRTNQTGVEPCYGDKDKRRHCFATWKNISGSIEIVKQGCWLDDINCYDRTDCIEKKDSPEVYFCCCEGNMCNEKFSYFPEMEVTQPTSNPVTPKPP
Test: ELISA
Assay readout: optical density (OD)
Use OD as the unit, but write only the number.

Examples with their reported optical density follow.
Binder | Observed result
375_H07 (antibody, V domains shown, Group III) VH: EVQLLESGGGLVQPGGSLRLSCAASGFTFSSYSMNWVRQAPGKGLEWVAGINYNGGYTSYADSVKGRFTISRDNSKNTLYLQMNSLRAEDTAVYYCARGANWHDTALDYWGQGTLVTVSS VL: DIQMTQSPSSLSASVGDRVTITCRASQSILSYLNWYQQKPGKAPKLLIYAATSLASGVPSRFSGSGSGTDFTLTISSLQPEDFATYYCQQSYSSPLTFGGGTKVEIK | 3.29
374_G08 (antibody, V domains shown, Group III) VH: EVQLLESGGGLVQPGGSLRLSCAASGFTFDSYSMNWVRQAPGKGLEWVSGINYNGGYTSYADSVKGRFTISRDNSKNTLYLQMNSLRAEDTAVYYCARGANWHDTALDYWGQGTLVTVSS VL: DIQMTQSPSSLSASVGDRVTITCRASQSILTYVNWYQQKPGKAPKLVIYAATSRASGVPSRFSGSGSGTDFTLTISSLQPEDFATYYCQQSYDSPLTFGGGTKVEIK | 3.7

Continue with the next binder.
Param item = 374_C12 (antibody, V domains shown, Group III) VH: EVQLLESGGGLVQPGGSLRLSCAASGFTFSSYSMNWVRQAPGKGLEWVAGINYNGGYKSYADSVKGRFTISRDNSKNTLYLQMNSLRAEDTAVYYCARGANWHDTALDYWGQGTLVTVSS VL: DIQMTQSPSSLSASVGDRVTITCRASQSILTYLNWYQQKPGKAPKLVIYAATSRASGVPSRFSGSGSGTDFTLTISSLQPEDFATYYCQQSDNSPLTFGGGTKVEIK ; retrieve measured optical density. 3.33
